Source of measurements: PubChem BioAssay (NCI)

Entries and their measured growth follow.
System: T-47D breast
Assay: NCI-60 one-dose screen, 48 h (100 = growth as untreated, 0 = no growth, -100 = all killed)
Settings: 10 µM
Description: Growth inhibition of the T-47D human tumor cell line is measured as a screen for anti-cancer activity. Cells are grown in 96 well plates and exposed to the test compound for 48 hours. Compounds are tested at a single concentration, which is 10^-5 M for most compounds. The reported endpoint is percent growth (GI% or GIPRCNT), where numbers from 0 - 100% represent growth inhibition, and numbers from -100% - 0 represent cell death. For example, a value of 40 represents 60% growth inhibition. […]
Compounds without any hit were thinned out: in the full panel of roughly 83,000, 20% have a hit.
Number in %, nothing else.

Consider the following illustrative entries.
> print(dat)
                                   molecule  experimental.target  observed.measurement
1  C=CC(=O)N1CC2(CCC(n3nc(-c4ccc(Oc5ccccc5)cc4)c4c(N)ncnc43)CC2)C1         T-47D breast                  14.6
2  COC1(OC)C2(Cl)C=C(c3ccccc3)C1(Cl)C(Cl)=C2Cl (stereo unspecified)         T-47D breast                  95.6
3                    FCOC(C(F)(F)F)C(F)(F)F         T-47D breast                  97.9

[Q] Give growth for O=C(CCc1nnc2sc(-c3ccccc3)nn12)c1nc2ccccc2[nH]1
[A] 80.3

[Q] Give growth for O=C(NCc1ccco1)C1CCN(S(=O)(=O)c2ccc(Cl)cc2)CC1
[A] 78

[Q] Give growth for Cc1ccc(C2SCC(=O)N2NC(=O)c2[nH]c3ccc(F)cc3c2-c2ccccc2)cc1 (stereo unspecified)
[A] 91.3

###

test system: CCRF-CEM leukemia; experiment: NCI-60 one-dose screen, 48 h; conditions: 10 µM unless noted
Compounds without any hit were thinned out: in the full panel of roughly 83,000, 20% have a hit. Active and inactive are the calls of the source. Rule for the calls: active = growth percent below 10; inactive = the rest.
Field 'call' accepts active, inactive

Here are 5 compounds together with their reported answers.
> print(dat)
                                   compound  discrete.label
1  Nc1nc(N)c(C=Nc2ccc(Br)cc2)c(Nc2ccc(Br)cc2)n1        inactive
2  Cc1nc(NC(=O)COc2cccc(/C=C3\COc4ccccc4C3=O)c2)sc1C          active
3  COc1ccc(Nc2nc(NCCNc3ccnc4cc(Cl)ccc34)nc(N3CCOCC3)n2)cc1        inactive
4  C[C@@H](Oc1cc(-c2cnn(C3CC4(CCCNC4)C3)c2)cnc1N)c1c(Cl)ccc(F)c1Cl (stereo partly specified)          active
5                   CCCCNNC(=O)c1ccc(Br)cc1        inactive

[Q] Status in this test for COc1ccc(/C=C/C(=O)N2CCC(O)CC2)cc1OC1CCCC1 ?
[A] inactive

[Q] Status in this test for O=[N+]([O-])c1cc2c(cc1Br)-c1ccccc1C2 ?
[A] inactive

[Q] Status in this test for COc1cc(C2C3=C(COC3=O)N(CCO)c3cc4c(cc32)OCO4)cc(OC)c1O (stereo unspecified) ?
[A] inactive

[Q] Status in this test for N#Cc1c(O)c2c(c(O)c1C#N)C(=O)c1ccccc1C2=O ?
[A] inactive

[Q] Status in this test for Clc1ccccc1Nc1ccc2nnc(-c3ccncc3)n2n1 ?
[A] inactive

[Q] Status in this test for OB(O)c1ccccc1 ?
[A] inactive
